Numbers sourced from patent US20100081612A1.

Would you kindly list pIC50 for each of these binders?
Target: T1, wild-type human PTHR (human, UniProt Q03431 27-593)
T1 construct: whole, on cells; also called PTHR-WT; intact PTHR
T1 sequence (looked up): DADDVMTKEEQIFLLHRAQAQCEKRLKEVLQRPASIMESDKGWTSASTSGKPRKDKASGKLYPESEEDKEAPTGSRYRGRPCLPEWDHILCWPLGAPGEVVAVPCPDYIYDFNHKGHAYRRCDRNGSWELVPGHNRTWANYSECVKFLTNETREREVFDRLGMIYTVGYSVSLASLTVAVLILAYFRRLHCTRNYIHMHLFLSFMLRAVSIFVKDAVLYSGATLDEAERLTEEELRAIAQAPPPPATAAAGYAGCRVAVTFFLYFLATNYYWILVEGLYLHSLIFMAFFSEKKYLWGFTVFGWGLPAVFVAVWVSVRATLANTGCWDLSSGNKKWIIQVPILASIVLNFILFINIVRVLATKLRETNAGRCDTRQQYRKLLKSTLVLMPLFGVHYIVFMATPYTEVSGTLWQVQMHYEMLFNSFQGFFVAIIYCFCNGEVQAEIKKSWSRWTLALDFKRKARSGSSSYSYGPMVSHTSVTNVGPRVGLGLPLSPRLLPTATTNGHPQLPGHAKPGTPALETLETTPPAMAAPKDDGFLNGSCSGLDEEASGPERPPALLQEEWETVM
Test: competition binding, HKRK-B7 cells, 125I-PTH(1-34) tracer
Where no end group is shown, it is not given here. [ ]: non-standard residue; d: D form. Cha = N[C@@H](CC1CCCCC1)C(=O)O
Notebook: values listed as pIC50 are -log10 of the concentration (mol/L).

Value of measured pIC50 for the entry AVSEIQLMHNLGKHLNSMRRVEWLEKKLQDV-NH2 [[Ala^1,Arg^19]hPTH(1-31)NH2 Arg^25→Glu] : 6.72

Value of measured pIC50 for the entry AVSEIQLMHNLGKHLNSMRRVEWLRKKEQDV-NH2 [[Ala^1,Arg^19]hPTH(1-31)NH2 Leu^28→Glu] : 4.98

Value of measured pIC50 for the entry AVSEIQLMHNLGKHLNSMRRVEWL[Cha]KKLQDV-NH2 [[Ala^1,Arg^19]hPTH(1-31)NH2 Arg^25→Cha] : 6.99
